- test: MTT cytotoxicity assay against HepG2 cell line
- Type: cell-based, human
- protocolConditions: human, HepG2 cells, HepG2, 24 h incubation, mean ± SD, read-out: EC50 (cytotoxicity, concentration leading to the death of 50% of the cells)
- Description: A hepatocellular carcinoma cell line HepG2, recognized for studying the metabolism of anticancer drugs, was used. The viability of HepG2 cell line culture after 24 h incubation with the compounds using the MTT (3-[4,5-dimethylthiazol-2-yl]-2,5-diphenyl tetrazolium bromide) assay was evaluated, and doxorubicin (Doxo) was used as a positive control. HepG2 human hepatocyte carcinoma cell line was purchased from European Collection of Authenticated Cell Cultures (ECACC). […]
In this section we review reported EC50 at 24 h values for a set of compounds.
measurementLabel: EC50 at 24 h

[[record]]
compound = "CCCCNC1=CC(=O)c2ccccc2C1=O"
measurementlabel = "EC50 at 24 h"
value = "35.8 µM"

[[record]]
compound = "O=C1C=C(Nc2ccc(O)cc2)C(=O)c2ccccc21"
measurementlabel = "EC50 at 24 h"
value = "21.4 µM"

[[record]]
compound = "O=C1C=CC(=O)c2ccccc21 [Compound 1, 1,4-naphthoquinone, reference compound]"
measurementlabel = "EC50 at 24 h"
value = "32.2 µM"

[[record]]
compound = "Nc1ccc(NC2=CC(=O)c3ccccc3C2=O)cc1"
measurementlabel = "EC50 at 24 h"
value = "8.7 µM"

